B1: Histone H1t, residues 44 to 112; numbered along this chain, P22492 (parent)
chain: VSKLITEALSVSQERVGMSLVALKKALAAAGYDVEKNNSRIKLSLKSLVNKGILVQTRGTGASGSFKLS

variants of: B1; experiment: abundance fitness (aPCA) (normalised: wild type 0, dead -1); higher = more abundant; growth selection in yeast, the domain comes from the species named; details: Homo sapiens
Classes are defined on abundance fitness with ranges Low = under -0.3, Medium = from -0.3 up to -0.1, High = -0.1 and over

Example entries begin here.
VARIANT DESIGNATION | DISCRETE LABEL
R40S | Low
G61N | High
K25G | Medium
S39R | Low
L68Y | Medium
N37V | Medium
S39V | Low
I41Y | Low

Request: Looking at D33M , which class would you pick?
Result: High

Request: Looking at A22D , which class would you pick?
Result: Medium

Request: Looking at V21R , which class would you pick?
Result: High
